Species on record: Rattus norvegicus
Experiment: Open TG-GATES - Regimen: Daily Repeat
Type: toxicity, organism-based, Sprague-Dawley
Set-up: regimen Daily Repeat, gender Male, age 6 weeks
Settings: in vivo, po, 300 mg/kg, […], tissue Plasma, route gavage, dose level Middle, time 7 day
METRIC_NAME: Cl

{"columns": ["SMILES_DATA", "MEASURED_VALUE"],
 "data": [
  ["CN/C(=N/CCSCc1nc[nH]c1C)NC#N", "102.4 meq/L"],
  ["COC(=O)C1=C(C)NC(C)=C(C(=O)OC)C1c1ccccc1[N+](=O)[O-]", "107.6 meq/L"],
  ["O=C(OC[C@H]1O[C@@H](OC(=O)c2cc(O)c(O)c(OC(=O)c3cc(O)c(O)c(O)c3)c2)[C@H](OC(=O)c2cc(O)c(O)c(OC(=O)c3cc(O)c(O)c(O)c3)c2)[C@@H](OC(=O)c2cc(O)c(O)c(OC(=O)c3cc(O)c(O)c(O)c3)c2)[C@@H]1OC(=O)c1cc(O)c(O)c(OC(=O)c2cc(O)c(O)c(O)c2)c1)c1cc(O)c(O)c(OC(=O)c2cc(O)c(O)c(O)c2)c1", "103 meq/L"],
  ["CNC(=C[N+](=O)[O-])NCCSCc1ccc(CN(C)C)o1", "103.8 meq/L"],
  ["Cc1nnc2n1-c1ccc(Cl)cc1C(c1ccccc1Cl)=NC2", "104.8 meq/L"],
  ["CCOc1ccc(NC(C)=O)cc1", "104.2 meq/L"]
]}

---

Organism: Rattus norvegicus
Assay: Open TG-GATES - Regimen: Single
Format: toxicity, organism-based, Sprague-Dawley
Design: regimen Single, gender Male, age 6 weeks
Conditions: in vivo, po, 300 mg/kg, 9 h, tissue Kidney, route gavage, dose level Middle
METRIC_NAME: KIDNEY_TOTAL (g)

{"columns": ["SMILES_DATA", "UNIT_INFO", "MEASURED_VALUE"],
 "data": [
  ["Cc1nnc2n1-c1ccc(Cl)cc1C(c1ccccc1Cl)=NC2", "g", 1.7],
  ["CN/C(=N/CCSCc1nc[nH]c1C)NC#N", "g", 1.9],
  ["COC(=O)C1=C(C)NC(C)=C(C(=O)OC)C1c1ccccc1[N+](=O)[O-]", "g", 1.8],
  ["CNC(=C[N+](=O)[O-])NCCSCc1ccc(CN(C)C)o1", "g", 1.9],
  ["O=C(OC[C@H]1O[C@@H](OC(=O)c2cc(O)c(O)c(OC(=O)c3cc(O)c(O)c(O)c3)c2)[C@H](OC(=O)c2cc(O)c(O)c(OC(=O)c3cc(O)c(O)c(O)c3)c2)[C@@H](OC(=O)c2cc(O)c(O)c(OC(=O)c3cc(O)c(O)c(O)c3)c2)[C@@H]1OC(=O)c1cc(O)c(O)c(OC(=O)c2cc(O)c(O)c(O)c2)c1)c1cc(O)c(O)c(OC(=O)c2cc(O)c(O)c(O)c2)c1", "g", 1.6]
]}

---

Species on record: Rattus norvegicus
Experiment: Open TG-GATES - Regimen: Daily Repeat
Assay type: toxicity, organism-based, Sprague-Dawley
Design: regimen Daily Repeat, gender Male, age 6 weeks
Conditions: in vivo, po, 0 mg/kg, 72 h, tissue Blood, route gavage, dose level Control, time 3 day
Parameter Mono: see the listing below.

{"columns": ["COMPOUND", "Mono [%]"],
 "data": [
  ["CNC(=C[N+](=O)[O-])NCCSCc1ccc(CN(C)C)o1", 2.6],
  ["CN/C(=N/CCSCc1nc[nH]c1C)NC#N", 2.2],
  ["O=C(OC[C@H]1O[C@@H](OC(=O)c2cc(O)c(O)c(OC(=O)c3cc(O)c(O)c(O)c3)c2)[C@H](OC(=O)c2cc(O)c(O)c(OC(=O)c3cc(O)c(O)c(O)c3)c2)[C@@H](OC(=O)c2cc(O)c(O)c(OC(=O)c3cc(O)c(O)c(O)c3)c2)[C@@H]1OC(=O)c1cc(O)c(O)c(OC(=O)c2cc(O)c(O)c(O)c2)c1)c1cc(O)c(O)c(OC(=O)c2cc(O)c(O)c(O)c2)c1", 6.4],
  ["CCOc1ccc(NC(C)=O)cc1", 2.8],
  ["CN(C)CCC(c1ccc(Cl)cc1)c1ccccn1 (stereo not drawn)", 2.8],
  ["COC(=O)C1=C(C)NC(C)=C(C(=O)OC)C1c1ccccc1[N+](=O)[O-]", 3.2],
  ["CCCc1cc(=O)[nH]c(=S)[nH]1", 8.4],
  ["Cc1nnc2n1-c1ccc(Cl)cc1C(c1ccccc1Cl)=NC2", 3],
  ["NC1=NC(=O)C(c2ccccc2)O1 (stereo not drawn)", 3.4],
  ["Brc1ccccc1", 3.2],
  ["CC(C)NNC(=O)c1ccncc1", 2.8],
  ["CN1C(=O)CCS(=O)(=O)C1c1ccc(Cl)cc1 (stereo not drawn)", 3],
  ["Nc1c2c(nc3ccccc13)CCCC2", 3]
]}
